Data origin: paper PMC7601839

experiment: Survival rate of RAW 264.7 cells by MTT assay; format: cell-based; details: mouse, LPS-induced RAW 264.7 cells, read-out: Cell Viability (%)
I'd be grateful if you could share measured viability at 24 h, 20 µM for these entries.
Give bare numbers, in %.

Field: viability at 24 h, 20 µM. Fill in for each record below.
1. C=C1C(=O)OC2(C)CCC1CC1OC1(C)CCC=C(C)CCC2=O (centres unmarked) [SC-2, 11-dehydrosinulariolide]
2. C=C1C(=O)O[C@@H]2C[C@H]1CC[C@]1(C)O[C@H]1CC/C(C)=C/CC[C@]2(C)O [SC-9, sinularin]

Result ::
1: 102; 2: 98.9

---

I'd be grateful if you could share measured viability at 24 h, 20 µM for these entries.
experiment: Survival rate of RAW 264.7 cells by MTT assay; format: cell-based; details: mouse, LPS-induced RAW 264.7 cells, read-out: Cell Viability (%)
Numbers only, in %.

In the examples that follow, each entry is paired with its recorded viability at 24 h, 20 µM.
C/C1=C\CC[C@](C)(O)[C@H]2C[C@@H](CC[C@]3(C)O[C@H]3CC1)[C@H](C)C(=O)O2 [SC-10, dihydrosinularin] | 117
C=C1C(=O)OC2(C)CCC1CC1OC1(C)CCC(OC(C)=O)C1(C)CCC2O1 (stereo not drawn) | 96.1

Consider the additional molecule presented here.
Query :: What measured viability at 24 h, 20 µM goes with C=C(C(=O)O)[C@@H]1CC[C@@](C)(O)[C@@H]2CC[C@@](C)(O2)[C@@H](OC(C)=O)CC[C@]2(C)O[C@H]2C1 [SC-6, dendronpholide F] ?
Result :: 96.1
